Entry source: the supplement of paper PMC13380429

Listed below: cell viability values for each entry.
Tested on: HepG2
method-summary: cell viability relative to DMSO; higher = less toxic
particulars: 72 h; 100 nM
result-type: cell viability (%)

compound	measured-value
CC1(C)O[C@@H]2C[C@H]3[C@@H]4CCC5=CC(=O)CC[C@]5(C)[C@@]4(F)[C@@H](O)C[C@]3(C)[C@]2(C(=O)CCl)O1 [halcinonide]	97.7
CCCc1c(OCCCOc2ccc(OCC(=O)O)cc2)ccc(C(C)=O)c1O	107
Cc1ccccc1N(C)C(=O)c1ccc([S+]([O-])c2nccs2)c([N+](=O)[O-])c1 (stereo unspecified)	95.1
CC(C)OC(=O)C1=CN(C(=O)c2ccc(F)c(F)c2)CC(C)(C)c2c1[nH]c1ccccc21	97.3
CCOC(=O)C(=O)Nc1cccc(OC)c1C(N)=O	93.2
CCC1=C[C@@H]2CN(C1)Cc1c([nH]c3ccccc13)[C@@](C(=O)OC)(c1cc3c(cc1OC)N(C)[C@H]1[C@@](O)(C(=O)OC)[C@H](OC(C)=O)[C@]4(CC)C=CCN5CC[C@]31[C@@H]54)C2 [vinorelbine]	58.6
C=C[C@@H]1C[C@]1(NC(=O)[C@@H]1C[C@@H](Oc2ncc(OC)c3ccc(Cl)cc23)CN1C(=O)[C@@H](NC(=O)OC(C)(C)C)C(C)(C)C)C(=O)NS(=O)(=O)C1CC1 [asunaprevir]	98.8
CCOC(=O)OC(C)OC1=C(C(=O)Nc2ccccn2)N(C)S(=O)(=O)c2ccccc21 (stereo unspecified) [ampiroxicam]	101
CC(C)CCC[C@@H](C)[C@H]1CC[C@H]2[C@@H]3CCC4=CC(=NO)CC[C@]4(C)[C@H]3CC[C@]12C [olesoxime]	95.3
C[C@H]1CO[C@@H]2Cn3cc(C(=O)NCc4ccc(F)cc4F)c(=O)c(O)c3C(=O)N12	97.1
CCCCCCCCCCCCCCCCCCOP(=O)([O-])OC1CC[N+](C)(C)CC1 [perifosine]	97.7
Cn1c(=O)cnn(CCCCN2CCN(c3ncccn3)CC2)c1=O	95.2
Cc1cn2nc([C@@H]3CCCCN3C(=O)c3cc(Cl)ccc3NS(C)(=O)=O)cc2nc1N1CC[C@H](N)C1 [presatovir]	104
NP(N)(=O)NC(=O)c1ccc(F)cc1 [flurofamide]	90.1
Cc1ccc(Nc2c(F)cccc2Cl)c(CC(=O)O)c1 [lumiracoxib]	109
COc1cc(OC)nc(O[C@H](C(=O)O)C(OC)(c2ccccc2)c2ccccc2)n1 [darusentan]	93.6

---

System: HepG2
method-summary: drug sensitivity score (DSS) for viability; higher = more toxic; extreme values may be limits of the assay
particulars: 72 h
result-type: drug sensitivity score

compound	result-type	measured-value
CC[C@H](NC(=O)c1c(C)c(-c2ccccc2)nc2ccccc12)c1ccccc1	drug sensitivity score	0
C=C(C)[C@@H]1[C@H]2OC(=O)[C@@H]1[C@]1(O)C[C@H]3O[C@]34C(=O)O[C@H]2[C@]14C [picrotoxinin]	drug sensitivity score	0
CC(C)C[C@@H](NC(=O)[C@H](C)NC(=O)CNC(=O)[C@@H](NC=O)C(C)C)C(=O)N[C@@H](C)C(=O)N[C@@H](C(=O)N[C@H](C(=O)N[C@@H](C(=O)N[C@@H](Cc1c[nH]c2ccccc12)C(=O)N[C@H](CC(C)C)C(=O)N[C@@H](Cc1c[nH]c2ccccc12)C(=O)N[C@H](CC(C)C)C(=O)N[C@@H](Cc1c[nH]c2ccccc12)C(=O)N[C@H](CC(C)C)C(=O)N[C@@H](Cc1c[nH]c2ccccc12)C(=O)NCCO)C(C)C)C(C)C)C(C)C [gramicidin]	drug sensitivity score	0
CC(C)C[C@@H](N)C1(c2ccc(Cl)cc2)CCC1	drug sensitivity score	0
Cc1ccc(Nc2ncc3c(n2)N(C)C(=O)N(c2cc(NC(=O)c4cccc(C(F)(F)F)c4)ccc2C)C3)cn1 [GNF-7]	drug sensitivity score	15.4
C[C@@H]1CC[C@H]2[C@@H](C)C(=O)O[C@@H]3O[C@@]4(C)CC[C@@H]1[C@]32OO4 [artemisinin]	drug sensitivity score	2.5
Cc1nnc(NS(=O)(=O)c2ccc(N)cc2)s1 [sulfamethizole]	drug sensitivity score	0
COc1cc(N2CCN(C)CC2)ccc1Nc1nccc(-c2cn(C)c3cnccc23)n1 [AZ191]	drug sensitivity score	6.4
Cn1nc(C(C)(C)C)cc1C(=O)N[C@@H](Cc1cccc(Cl)c1)C(=O)NCC#N [cathepsin-inhibitor-1]	drug sensitivity score	0
CC(Cc1ccc(O)cc1)NCC(O)c1cc(O)cc(O)c1 (stereo not given) [fenoterol]	drug sensitivity score	0
Cc1c(C(N)=O)cc([N+](=O)[O-])cc1[N+](=O)[O-] [dinitolmide]	drug sensitivity score	0
CCOC(=O)C(=O)Nc1cccc(OC)c1C(N)=O	drug sensitivity score	0
CC(C)[C@@H](C(=O)Nc1nccs1)c1ccc(Cl)cc1 [4-CMTB]	drug sensitivity score	1.8
CCCn1c(=O)c2[nH]c(C3CCCC3)nc2n(CCC)c1=O [DPCPX]	drug sensitivity score	0
O=C(O)CCNc1cc(N2CCc3ccccc3CC2)nc(-c2ccccn2)n1 [GSK-J1]	drug sensitivity score	0

---

A collection of compounds and their measured cell viability
System: Vero E6
method-summary: cell viability relative to DMSO; higher = less toxic
particulars: 72 h; 100 nM

compound	cell viability, %
N#C/C(=C1/SC[C@@H](c2ccc(Cl)cc2Cl)S1)n1ccnc1 [luliconazole]	93.8
Cc1c(F)cccc1NC(=O)Nc1ccc(Cl)c(S(=O)(=O)[C@H]2CCCNC2)c1O [danirixin]	106
CC1(C)C(/C=C/C=C/C=C/C=C2\N(CCCCS(=O)(=O)O)c3ccc4ccccc4c3C2(C)C)=[N+](CCCCS(=O)(=O)[O-])c2ccc3ccccc3c21 [indocyanine-green]	102
C[C@]12CCC(=O)C=C1CC[C@@H]1[C@@H]2C(=O)C[C@]2(C)C(=O)CC[C@@H]12 [adrenosterone]	99.3
COc1cc(Nc2ncc3c(n2)-c2ccc(Cl)cc2C(c2c(F)cccc2OC)=NC3)ccc1C(=O)O [alisertib]	84.4
O=c1[nH]c2cc(C(F)(F)F)c(N3CCOCC3)cc2n(CP(=O)(O)O)c1=O	99.6
Cc1ccc(-c2ncc[nH]2)cc1NC(=O)c1ccc(OCc2ccccn2)cc1	99.2
O=S(=O)(c1cccc2c(O)nccc12)N1CCCNCC1 [hydroxyfasudil]	96.4

---

System: Caco-2
method-summary: cell viability relative to DMSO; higher = less toxic
particulars: 72 h; 10 nM

molecule	cell viability
CCC/C=C1\OC(=O)C2=C1CCC=C2 [ligustilide]	104%
NS(=O)(=O)c1cc2c(cc1Cl)NC(CC1CCCC1)NS2(=O)=O (stereo unspecified) [cyclopenthiazide]	106%
C=CC[C@]1(O)CC[C@H]2[C@@H]3CCC4=CCCC[C@@H]4[C@H]3CC[C@@]21C	102%
Cc1ccc(-c2nn(C(C)(C)CNC(=O)c3ncccc3C)c3ncnc(N)c23)cc1	100%
CC(NC(C)(C)C)C(=O)c1cccc(Cl)c1 (stereo unspecified)	90.6%
O=C1CC2(CCCC2)CC(=O)N1CCNC[C@H]1COc2ccccc2O1	89%
CCCc1c(OCCCOc2ccc(OCC(=O)O)cc2)ccc(C(C)=O)c1O	90.6%
Cc1ccc(-c2ncc[nH]2)cc1NC(=O)c1ccc(OCc2ccccn2)cc1	101%
C=CCc1ccc(O)c(-c2cc(CC=C)ccc2O)c1	95.3%
COC(=O)[C@@H]1CC2=CC(=O)CC[C@]2(C)[C@@]23O[C@@H]2C[C@@]2(C)[C@@H](CC[C@@]24CCC(=O)O4)[C@H]13	101%
CCc1cc(-c2[nH]nc(C)c2-c2ccc3c(c2)OCCO3)c(O)cc1O	92%
CCO[C@@H](Cc1ccc(OCCc2ccc(OS(C)(=O)=O)cc2)cc1)C(=O)O	86%
COc1ccc(-c2ccc3cc(C(=O)O)ccc3c2)cc1C12CC3CC(CC(C3)C1)C2	99.6%
N#C/C(=C1/SC[C@@H](c2ccc(Cl)cc2Cl)S1)n1ccnc1	98.1%
CSc1cc2c(cc1C(F)(F)F)N(C(=O)Nc1cccnc1)CC2	101%
CCCCN1CCCCC1C(=O)Nc1c(C)cccc1C (stereo unspecified)	88.2%
C#C[C@]1(OC(C)=O)CC[C@H]2[C@@H]3CCC4=CC(=O)CC[C@@H]4[C@H]3CC[C@@]21C [norethindrone-acetate]	97.1%
Cc1nc(Nc2cnn(C3CCNCC3)c2)nc2c1N(C)C(=O)c1cc3ccccc3cc1N2C	99.7%
CN(N=O)C(=O)N[C@@H](C=O)[C@@H](O)[C@H](O)[C@H](O)CO	82.3%
c1ccc2oc(C3=NCCN3)cc2c1	96.2%
Oc1ccc(C2(c3ccccc3F)CCC(F)(F)CC2)cc1	95%
O=C1c2ccc(Nc3ccc(F)cc3F)cc2CCc2ccc(OC[C@H](O)CO)cc21 [skepinone-L]	84.1%
C[C@]12CCC(=O)C=C1C=C[C@@H]1[C@@H]2CC[C@@]2(C)[C@H]1CC[C@@]2(O)CCC(=O)O [potassium-canrenoate]	112%
C/C=C/C=C/C(=O)O	93.3%
CC1(C)S[C@@H]2[C@H](NC(=O)[C@H](N)c3ccc(O)cc3)C(=O)N2[C@H]1C(=O)O	78.5%
CC1(C)O[C@@H]2C[C@H]3[C@@H]4CCC5=CC(=O)CC[C@]5(C)[C@@]4(F)[C@@H](O)C[C@]3(C)[C@]2(C(=O)CCl)O1 [halcinonide]	99.4%
COc1ccccc1N1CCN(CCn2c(=O)[nH]c3c([nH]c4ccccc43)c2=O)CC1	93.8%
COc1ccc([C@]2(C#N)CC[C@@H](C(=O)O)CC2)cc1OC1CCCC1	91.3%
C[C@@H]([C@@H](O)c1ccc(O)cc1)N1CCC(O)(c2ccccc2)CC1	100%
C=C[C@@H]1C[C@]1(NC(=O)[C@@H]1C[C@@H](Oc2ncc(OC)c3ccc(Cl)cc23)CN1C(=O)[C@@H](NC(=O)OC(C)(C)C)C(C)(C)C)C(=O)NS(=O)(=O)C1CC1	96.5%
N=C(N)NCCN1CCCCCCC1	96.6%
